All values here come from PubChem BioAssay (Tox21).

experiment: qHTS assay to identify small molecule agonists of the constitutive androstane receptor (CAR) signaling pathway - cell viability counter screen (AID 1224836); conditions: HepG2-CYP2B6-hCAR viability, CellTiter-Fluor, 23 h, PK11195 added to every well; series mostly up to 92.4 µM; also: % is scaled to controls: 0 for no effect and ±100 for the full control effect; nearly all actives have a fitted effect of over 45% in size
Inconclusive results are not listed. Calls of active or inactive are those of the source. Calls follow the shape of the dose curve; as a rule, active = well fitted cell-killing curve with a large enough effect in the repeat runs; inconclusive = weak or mixed curves, or effect the other way; inactive = flat fitted curve, though single readings scatter.
ASSAY READOUT: viability change, negative = cytotoxic

Example cases with answers are listed next.
>  <COMPOUND>
O=C(C(=O)c1ccc(Br)cc1)c1ccc(Br)cc1

>  <ASSAY READOUT>
viability change, negative = cytotoxic

>  <RECORDED RESULT>
3.05% [at 19 µM] (inactive)

$$$$
>  <COMPOUND>
CC/C(=C\C(=N/O)C(N)=O)C(C)[N+](=O)[O-] (configuration not stated)

>  <ASSAY READOUT>
viability change, negative = cytotoxic

>  <RECORDED RESULT>
inactive

$$$$
>  <COMPOUND>
C=C(C)C(=O)OCCN(C)C

>  <ASSAY READOUT>
viability change, negative = cytotoxic

>  <RECORDED RESULT>
inactive

$$$$
>  <COMPOUND>
Cc1ccccc1N=Nc1ccc(N=Nc2c(O)ccc3ccccc23)c(C)c1

>  <ASSAY READOUT>
viability change, negative = cytotoxic

>  <RECORDED RESULT>
inactive

$$$$
>  <COMPOUND>
NC[C@H]1O[C@H](O[C@H]2[C@H](O)[C@@H](O[C@H]3O[C@H](CO)[C@@H](O)[C@H](N)[C@H]3O)[C@H](N)C[C@@H]2N)[C@H](O)[C@@H](O)[C@@H]1O

>  <ASSAY READOUT>
viability change, negative = cytotoxic

>  <RECORDED RESULT>
-3.02% [at 8.39 µM] (inactive)

$$$$

Prompt line: Any idea what its viability change, negative = cytotoxic is? The compound is CCCCc1cc2ccccc2c(OCCN(C)C)n1
Response line: inactive

Prompt line: Any idea what its viability change, negative = cytotoxic is? The compound is CCCCC(CC)(CO)CO
Response line: inactive

---

molecular target: Cytochrome P450 2D6 (Homo sapiens); experiment: Cytochrome P450 Family 2 Subfamily D Member 6 (CYP2D6) small molecule antagonists: luciferase reporter qHTS assay (AID 1671196); conditions: P450-Glo CYP2D6 enzyme assay, luciferin luminescence, 1 h; series mostly up to 115 µM; also: nearly all actives have a fitted effect of over 50% in size
Results filed as inconclusive are left out. Calls of active or inactive are those of the source. Calls come from the whole dose curve; as a rule, active = well fitted inhibition curve with a large enough effect in the repeat runs; inconclusive = weak or mixed curves; inactive = no such curve, though single readings can be large or run the other way.
Choose the fitting class; nothing outside Yes for active, No for inactive is accepted.

Completed entries (count: 3):
>  <MOLECULE>
Cc1ccc(C(N)=O)cc1N

>  <CLASS ASSIGNMENT>
No

$$$$
>  <MOLECULE>
O=S1(=O)c2cccc3cccc(c23)N1CCCN1CCN(c2ccc(F)cc2)CC1

>  <CLASS ASSIGNMENT>
Yes

$$$$
>  <MOLECULE>
CC[C@@H]1C[C@H](N(Cc2cc(C(F)(F)F)cc(C(F)(F)F)c2)C(C)=O)c2cc(C(F)(F)F)ccc2N1C(=O)OC(C)C

>  <CLASS ASSIGNMENT>
No

$$$$

Prompt line: Just curious, what result did Nc1cnn([C@@H]2O[C@H](CO)[C@@H](O)[C@H]2O)c(=O)n1 get here?
Response line: No

Prompt line: Just curious, what result did CC(C)(C)c1cc(CCC(=O)OCC(COC(=O)CCc2cc(C(C)(C)C)c(O)c(C(C)(C)C)c2)(COC(=O)CCc2cc(C(C)(C)C)c(O)c(C(C)(C)C)c2)COC(=O)CCc2cc(C(C)(C)C)c(O)c(C(C)(C)C)c2)cc(C(C)(C)C)c1O get here?
Response line: No

Prompt line: Just curious, what result did OCC1CC2CC1C1CCC(CO)C21 (stereo not drawn) get here?
Response line: No

Prompt line: Just curious, what result did CCOC(=O)CC(C)C get here?
Response line: No

Prompt line: Just curious, what result did COCCO get here?
Response line: No

Prompt line: Just curious, what result did c1ccc(OCc2ccc(CCCN3CCOCC3)cc2)cc1 get here?
Response line: Yes

Prompt line: Just curious, what result did SC1CCCC1 get here?
Response line: No

Prompt line: Just curious, what result did Cc1occc1S get here?
Response line: No

Prompt line: Just curious, what result did CC(=O)/C(C)=C/C1C(C)=CCCC1(C)C (stereo not drawn) get here?
Response line: No

Prompt line: Just curious, what result did CC(=O)OCCc1ccccc1 get here?
Response line: No

Prompt line: Just curious, what result did O=C(O)[C@@H]1[C@H]2C[C@H]3c4[nH]c5ccccc5c4CCN3C[C@@H]2CC[C@@H]1O get here?
Response line: Yes

Prompt line: Just curious, what result did C=C(C)C(=O)OCCOc1ccccc1 get here?
Response line: No

Prompt line: Just curious, what result did O=c1[nH]cnc2ccccc12 get here?
Response line: No
